Here's a roundup of IC50 values tested on TBK1 (Homo sapiens, UniProt Q9UHD2), taken from various published works.
Sequence (Q9UHD2 whole entry): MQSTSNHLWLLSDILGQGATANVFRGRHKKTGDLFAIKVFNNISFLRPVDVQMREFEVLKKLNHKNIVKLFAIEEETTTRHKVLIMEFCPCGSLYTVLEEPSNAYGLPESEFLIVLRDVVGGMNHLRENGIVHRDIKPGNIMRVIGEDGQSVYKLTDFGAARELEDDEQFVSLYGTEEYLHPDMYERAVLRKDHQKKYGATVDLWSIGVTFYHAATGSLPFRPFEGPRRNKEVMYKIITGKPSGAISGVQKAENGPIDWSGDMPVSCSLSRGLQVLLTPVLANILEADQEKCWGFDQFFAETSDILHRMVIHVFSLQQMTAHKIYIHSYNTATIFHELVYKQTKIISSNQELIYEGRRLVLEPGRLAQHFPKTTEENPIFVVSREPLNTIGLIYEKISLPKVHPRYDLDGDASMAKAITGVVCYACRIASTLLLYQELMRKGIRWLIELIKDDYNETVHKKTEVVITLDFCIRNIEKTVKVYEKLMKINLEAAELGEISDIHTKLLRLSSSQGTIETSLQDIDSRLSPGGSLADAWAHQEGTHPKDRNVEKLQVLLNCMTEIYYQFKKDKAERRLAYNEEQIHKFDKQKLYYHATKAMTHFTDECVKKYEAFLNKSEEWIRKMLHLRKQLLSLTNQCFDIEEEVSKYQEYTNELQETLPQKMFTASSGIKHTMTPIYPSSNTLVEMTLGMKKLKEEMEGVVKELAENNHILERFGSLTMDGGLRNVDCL

Known results for compounds:
> print(dat)
                                   compound  endpoint.name    measured
1  COc1cc(C(=O)N(C)CCO)ccc1-c1cc2nccc(-c3ccc(OC4CCOCC4)c(C#N)c3)c2o1           IC50    < 300 nM
2  COCCn1cc(-c2cnc3[nH]cc(-c4cnc(OC5CCOCC5)c(C#N)c4)c3c2)cn1           IC50    < 300 nM
3  CN1CCN(c2nccc(-c3ccc(N)c4c3CNC4=O)n2)CC1           IC50  > 10000 nM
4  CN1CCN(C(=O)c2ccc(-c3cc4nccc(-c5ccc(OCC6CCC6)c(C#N)c5)c4o3)cc2)CC1           IC50    < 300 nM
5  CN(CCO)C(=O)c1ccc(-c2cc3nccc(-c4ccc(OC5CCOCC5)c(C#N)c4)c3o2)c(F)c1           IC50    < 300 nM

Consider now this further compound.
input: Recorded IC50 of COc1nc(Nc2cc(-c3ccc(OC4CCNCC4(F)F)c(C#N)c3)ncn2)ccc1C1CCN(C2COC2)CC1 (stereo not drawn) , please.
output: < 100 nM
